Biological target: furin, P09958;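 further: purified furin at 1:10 enzyme:substrate in 50 mM HEPES pH 7.5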
Sequence (P09958 whole entry): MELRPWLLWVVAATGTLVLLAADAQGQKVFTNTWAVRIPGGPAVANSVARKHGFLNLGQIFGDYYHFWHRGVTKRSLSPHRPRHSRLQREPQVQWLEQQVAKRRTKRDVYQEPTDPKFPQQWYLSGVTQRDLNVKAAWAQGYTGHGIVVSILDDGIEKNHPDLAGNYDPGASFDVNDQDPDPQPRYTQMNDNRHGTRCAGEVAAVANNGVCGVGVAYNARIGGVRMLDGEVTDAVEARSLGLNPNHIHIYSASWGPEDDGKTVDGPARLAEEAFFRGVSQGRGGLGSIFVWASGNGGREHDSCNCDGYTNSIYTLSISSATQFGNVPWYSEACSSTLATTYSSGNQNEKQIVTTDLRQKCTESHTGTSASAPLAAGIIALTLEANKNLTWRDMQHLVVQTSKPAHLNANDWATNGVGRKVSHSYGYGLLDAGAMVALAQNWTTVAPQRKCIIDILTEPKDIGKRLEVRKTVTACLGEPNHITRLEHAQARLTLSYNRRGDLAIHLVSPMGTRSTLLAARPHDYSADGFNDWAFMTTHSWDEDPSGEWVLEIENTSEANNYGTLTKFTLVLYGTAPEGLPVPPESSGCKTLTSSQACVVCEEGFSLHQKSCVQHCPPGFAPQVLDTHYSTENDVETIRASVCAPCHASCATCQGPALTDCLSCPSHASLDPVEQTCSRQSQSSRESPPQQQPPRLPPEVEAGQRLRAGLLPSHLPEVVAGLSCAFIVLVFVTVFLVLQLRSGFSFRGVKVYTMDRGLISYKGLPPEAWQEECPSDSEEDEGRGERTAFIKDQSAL
Assay: furin cleavage Z-score vs untreated control; higher = more cleavage, active = 3.5 or more, inactive = 1 or less, 8 variable residues between constant flanks
Details: 15 min
The other results are listed elsewhere or left out. The hit rate among all sequences tested is not known here.
For each of the sequences below, state its furin cleavage Z-score.
Give bare numbers.

MONOMER_SEQUENCE	furin cleavage Z-score
CARWKRNLDFAGNASASA [FS-2199]	7.97
CAICQRVKRVAGNASASA [FS-1633]	-0.331
CAYSHRWKRNAGNASASA [FS-112]	8.5
CAQRRRARRGAGNASASA [FS-850]	2.13

// each sequence listed below needs its furin cleavage Z-score
1. CARWKRPIDLAGNASASA [FS-3131]
2. CAVQARDLGPAGNASASA [FS-1874]

Completion:
[0.7, -0.417]

Prompt: Which furin cleavage Z-score reading was recorded for the sequence CAHSRTIKRSAGNASASA [FS-1632] ?
Completion: 6.15
